Target System: EPHB2 (UniProt P29323)
Sequence (P29323 whole entry, looked up): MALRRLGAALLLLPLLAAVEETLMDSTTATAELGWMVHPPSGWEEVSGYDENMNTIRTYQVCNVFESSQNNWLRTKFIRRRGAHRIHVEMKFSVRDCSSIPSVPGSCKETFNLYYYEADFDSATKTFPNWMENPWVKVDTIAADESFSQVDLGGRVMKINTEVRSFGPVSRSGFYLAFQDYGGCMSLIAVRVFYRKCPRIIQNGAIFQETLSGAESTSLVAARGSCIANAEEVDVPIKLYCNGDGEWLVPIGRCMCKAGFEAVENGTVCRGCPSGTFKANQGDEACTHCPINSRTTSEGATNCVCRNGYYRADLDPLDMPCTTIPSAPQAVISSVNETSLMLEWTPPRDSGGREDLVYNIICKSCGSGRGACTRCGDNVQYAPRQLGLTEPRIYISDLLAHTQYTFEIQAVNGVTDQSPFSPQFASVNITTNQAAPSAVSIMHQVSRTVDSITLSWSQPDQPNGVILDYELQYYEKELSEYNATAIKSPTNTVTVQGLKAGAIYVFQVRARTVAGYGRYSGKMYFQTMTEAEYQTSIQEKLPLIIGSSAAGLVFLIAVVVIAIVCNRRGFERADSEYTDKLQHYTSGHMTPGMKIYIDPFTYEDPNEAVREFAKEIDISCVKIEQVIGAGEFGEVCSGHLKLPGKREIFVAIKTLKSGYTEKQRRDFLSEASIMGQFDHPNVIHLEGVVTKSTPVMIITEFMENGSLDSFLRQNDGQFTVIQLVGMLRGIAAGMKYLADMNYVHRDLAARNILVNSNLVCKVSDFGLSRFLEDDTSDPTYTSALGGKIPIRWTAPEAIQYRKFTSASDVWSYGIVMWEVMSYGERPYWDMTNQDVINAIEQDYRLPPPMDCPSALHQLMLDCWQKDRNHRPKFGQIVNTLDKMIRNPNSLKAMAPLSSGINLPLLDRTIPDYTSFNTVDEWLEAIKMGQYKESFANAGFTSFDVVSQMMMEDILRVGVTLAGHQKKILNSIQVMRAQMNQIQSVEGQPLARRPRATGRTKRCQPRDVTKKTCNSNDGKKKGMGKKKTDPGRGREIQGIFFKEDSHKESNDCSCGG
Assay Procedure: phosphorylation enrichment, bacterial display (enrichment ratio); higher = better substrate or ligand; peptides without Tyr show the background;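 also: 11-residue human phosphosite peptides and single-mutation variants displayed on the E. coli surface, counted by deep sequencing, each peptide's frequency after selection divided by its frequency in the unselected input library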;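 also: frequency after pTyr selection over input frequency; kinase dosed for 20-30% of maximal phosphorylation in three min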
Listed sequences paired with reported phosphorylation enrichment
Measurement Kind: phosphorylation enrichment

Sequence String	Value Measured
VFDMLYQVANL [USP24_Y1087_L1089V]	5.28
FEELVYETVRV [FSHB_Y76_K72E]	5.12
RFVFFYSFLLK [PTEN_Y178_YF]	0.502
QSQQAYQEAFE [YWHAZ_Y149]	0.47
MSSLPYMKMIF [SLC4A11_Y853]	0.541
CEAMEYLESKQ [BTK_Y511]	0.811
CSHKFYGKQCC [ADAMTS16_Y1211]	0.477
MNLLGYRHVRS [CHST4_Y359]	0.461
DEDFLCREELA [POR_Y575_Y575C_YF]	0.657
YMRGMYFRMKD [PLA2G6_Y541]	0.523
QRTMKYTTATE [MCCC1_Y41_G46E]	1.43
TYVVLYDAELT [ERCC4_Y581_R576T]	2.67
DENWFYTRAAS [RPS19_Y54]	0.517
CLMILHRLKER [PTPRR_Y249_Y249H]	0.569
EATKGYPDDPT [G6PD_Y322_L323P]	0.673
SVQIVYKPVDL [MAPT_Y627]	0.499
PRLMLYNPTTY [EGFR_Y270_P266R]	0.905
DDSSAYRSVDE [BCKDHA_Y345]	0.528
SAASSYSFSDL [EMD_Y59]	0.47
CTTIHNNYMCN [TP53_Y234_Y234N]	0.456
PKGTGYIKTES [STAT1_Y701_L706S]	0.449
PARLEYFENEK [IRS1_Y46_YF]	0.777
VEDQFYCVDCF [FHL1_Y208_YF]	0.697
VCRHNYGVVES [HLA-DRB1_Y112_Y107V]	1.5
FSDQVYRQRRK [TH_Y230]	0.663
STAPSYGNPSS [CD19_Y378_G373S]	0.357
GKFFQYDTWKQ [IGF2_Y116]	0.564
QLAPQYTYTQG [FLNA_Y1761_A1764T]	0.413
QVMDGYPIPIG [MMP14_Y353_M355I]	0.755
CTHDLYMIMRE [FGFR3_Y724]	1.03
